Form field: % Inhibition (one value per entry).
Tested on: P. falciparum stage V gametocytes
Design: BacTiter-Glo ATP luminescence viability of purified stage V gametocytes in 384-well plates, per cent inhibition versus DMSO
Experimental conditions: 48 h, 5 µM; inhibitor
The whole screen tested about 13,000 compounds, of which about 3,200 (25%) showed an effect of 50% or more. The list shows a part of the results.
Kindly format the answer as number then unit.

Compound: CCc1cc2c(N)nc(N)nc2nc1-c1ccccc1 [TCMDC-131931]
Test value: 14.27%
--
Compound: COc1ccc2nccc([C@@H](O)CN3CCC(NCc4ccc5c(c4)sc(=O)n5C)CC3)c2c1 [TCMDC-141149]
Test value: -6.737%
--
Compound: CN1CCN(c2cc3c(Nc4ccc5c(cnn5Cc5ccccc5)c4)ncnc3cn2)CC1 [TCMDC-137767]
Test value: 5.484%
--
Compound: COc1cc2c(cc1S(=O)(=O)c1ccc(NC(=O)c3cc4ccccc4s3)cc1)CCN(C)CC2 [TCMDC-133789]
Test value: 17.23%
--
Compound: N#Cc1ccc(NC(=NCc2cccnc2)Nc2ccc(-c3ccccc3)cc2)c(O)c1 [TCMDC-140208]
Test value: -10.63%

Q. Return % Inhibition (reported value) for this compound: COc1ccc(CNCc2ccc(-c3ccc(CNCCc4ccccc4)cn3)cc2)cn1 [TCMDC-141647]
A. 26.41%

Q. Return % Inhibition (reported value) for this compound: CC(C)CC1(C(=O)OC(C)(C)C)CC(C(=O)OC(C)(C)C)C(c2cccs2)N1C(=O)c1ccc(C(C)(C)C)cc1 (stereo not drawn) [TCMDC-138807]
A. 77.31%

Q. Return % Inhibition (reported value) for this compound: CCCc1ccc(C(=O)N2C(c3nccs3)C(C(N)=O)CC2(CC(C)C)C(=O)O)cc1 (stereo not drawn) [TCMDC-138717]
A. -10.33%

Q. Return % Inhibition (reported value) for this compound: CC1(C)N=C(N)N=C(N)N1OCCCOc1cccc(C(=O)O)c1 [TCMDC-124025]
A. 22.26%

// data source = paper PMC4552634
